Assay: PhoP-dependent GFP reporter repression – Salmonella Typhimurium, primary screen (AID 1863);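 further: 0% = low Mg2+ inducing control and 100% = high Mg2+ repressing control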
Details: S. Typhimurium PhoP-regulated promoter GFP reporter, 4 h; at 50 µM; stronger effect = higher value
About 480 (0.16%) of roughly 300,000 compounds were called active. Only a sample is shown. Results with a measured potency or affinity are listed apart.
measured quantity: inhibition (%)

>>> data_value("Cc1ccccc1CSCCC(=O)NCCC1=CCCCC1")
6.03
>>> data_value("Cc1cc(C)c(NC(=O)CNC(=O)CN2C(=O)NC3(CCCc4ccccc43)C2=O)c(C)c1 (stereo unspecified)")
0.74
>>> data_value("Cc1ccc(Nc2cc(C)c3ccc(O)cc3n2)cc1C")
59.6
>>> data_value("O=C(COc1ccccc1F)NNC(=O)c1ccc2c(=O)n3c(nc2c1)CCC3")
-5.21
>>> data_value("CCN(Cc1cn2cccnc2n1)C1CCCCC1")
-4.78
>>> data_value("Cc1cc(C)n(C(=O)CNC(=O)c2ccc3c(c2)OCCO3)n1")
-15.6
>>> data_value("COc1ccccc1C(c1nnnn1C1CCCC1)N1CCN2CCCC2C1 (stereo unspecified)")
2.8
>>> data_value("C[n+]1cn(Cc2cc(Cl)ccc2OC(F)F)c2ccccc21")
-3.69
>>> data_value("O=C(/C=C/c1cccc([N+](=O)[O-])c1)NCCSCc1cccc(Cl)c1")
-1.04
>>> data_value("N#CC1=C(N)N(c2ccccc2)C(c2cccc([N+](=O)[O-])c2)C1(C#N)C#N (stereo unspecified)")
-7.85
>>> data_value("Nc1nnc(CC(=O)N/N=C/c2ccccc2OCc2ccccc2F)s1")
2.44
>>> data_value("CCCCCc1ccc(OCCCC[n+]2ccc(C)cc2)c(CCCCC)c1")
15.8
>>> data_value("NCC12CC3CC(C1)CC(c1ccc(Cl)cc1)(C3)C2")
10.5
>>> data_value("CCOC(=O)C(C(=O)OCC)C(C(=O)OCC)N1CCOCC1 (stereo unspecified)")
3.26
>>> data_value("O=[N+]([O-])c1ccccc1/C=N/n1c(C2CCCCC2)n[nH]c1=S")
8.51
>>> data_value("CCCCCc1ccc(OCCCC[n+]2cccc(C)c2)c(CCCCC)c1")
3.26
>>> data_value("Oc1cccc(/C=N/N=C/c2cccc(O)c2O)c1O")
16.2
>>> data_value("CCN(CC)CCNC(=O)C(=O)Nc1ccc2c(c1)N(S(=O)(=O)c1cccs1)CCC2")
0.58
>>> data_value("Cc1cccc(NC(=O)CNC(=O)N2CC(=O)Nc3ccccc32)c1C")
-2.45
>>> data_value("CCCCCc1ccc(OCCCC[n+]2ccccc2)c(CCCCC)c1")
3.64
>>> data_value("Cn1c(CCCNC(=O)c2cccs2)nc2ccccc21")
-1.8
>>> data_value("CC(=O)Nc1ccc(S(=O)(=O)NC(C)C(=O)NC(C)c2ccccc2)cc1 (stereo unspecified)")
-5.32
>>> data_value("O=C(Cc1ccccc1)N/N=C/c1cc(Br)cc(Br)c1O")
-8.98
>>> data_value("Cc1ccc(NC(=O)NNC(=O)c2ccccc2)cc1")
3.02
>>> data_value("COc1ccc(C(=O)N2CCN(c3ncccn3)CC2)cc1")
6.73
>>> data_value("CCOC(=O)C1CCN(c2ncnc3nc[nH]c23)CC1")
0.02
>>> data_value("CCCCC(=O)N1CCN(c2nc3ccc(OCC)cc3s2)CC1")
10.3
>>> data_value("O=C(C[n+]1cccc(CNC(=O)c2ccc(OC(F)F)cc2)c1)Nc1cccc(C(F)(F)F)c1")
25.3
>>> data_value("CCCc1cc(=O)oc2cc(C)cc(OCC(=O)NCCCN3CCCC3=O)c12")
-4.85
>>> data_value("NC(N)=NN=C1CCC(c2ccccc2)CC1 (stereo unspecified)")
-4.95
>>> data_value("CC(NC(=O)c1cc2cc(F)ccc2[nH]1)c1ccccc1 (stereo unspecified)")
5.36
>>> data_value("O=C1C(=O)N(CC2CCCO2)C(c2ccccc2[N+](=O)[O-])/C1=C(/O)c1ccccc1 (stereo unspecified)")
2.01
>>> data_value("COc1ccc(NC(=O)c2cn3c(nc4ccccc43)c(C#N)c2C)cc1")
-3.66
>>> data_value("O=C(NCc1ccco1)C1CCCN(S(=O)(=O)c2ccc(Cl)cc2)C1 (stereo unspecified)")
0.1
>>> data_value("CCc1ccc2nc(N)sc2c1")
1.27
>>> data_value("Cc1c(N2C(=O)c3ccc(Br)cc3C2=O)c(=O)n(-c2ccccc2)n1C")
2.78
>>> data_value("COC(=O)c1cc(Nc2cc(C)c3c(O)cccc3n2)cc(C(=O)OC)c1")
1.78
>>> data_value("O=C(O)c1ccc(N2C(=O)CC(N3C(=O)/C(=C/c4ccc(Cl)cc4)SC3=S)C2=O)cc1 (stereo unspecified)")
16
>>> data_value("CC1CCCCC1NC(=O)CNC(=O)c1cccs1 (stereo unspecified)")
0.65
>>> data_value("CCOc1ccccc1NC(=O)CSc1nnc(CNC(=O)c2c(F)cccc2Cl)o1")
1.66
>>> data_value("Cc1cc([N+](=O)[O-])cc(/C=N\\NC(=O)C2COc3ccccc3O2)c1O (stereo unspecified)")
-5.46
>>> data_value("O=S(=O)(c1ccc(Br)cc1)N1CCN=C1SCc1cccc(F)c1")
-2.02
>>> data_value("COc1ccccc1C(=O)OCc1ccc2sc(C)nc2c1")
5.75
>>> data_value("CCOc1ccccc1CN1CCN(Cc2ccon2)CC1CCO (stereo unspecified)")
-9.77
>>> data_value("Cc1nc2ccc(S(=O)(=O)NCC(=O)Nc3cccc(F)c3)cc2s1")
0.67
>>> data_value("O=S1(=O)N=C(N/N=C/c2ccco2)c2ccccc21")
11.7
